Each entry below lists one item and its recorded growth value.
Test system: HCT-15 colon
Experiment: NCI-60 one-dose screen, 48 h (100 = growth as untreated, 0 = no growth, -100 = all killed)
Settings: 10 µM unless noted
About 83,000 compounds went through this panel and 20% of them were active in at least one assay; those are over-represented in the sample as a whole.
Note: unit % is implicit; provide only the numeric part.

Consider the following illustrative entries.
CCCCCCCCCCCCCCCCC(=O)O    102
Nc1nc(-c2ccccn2)cc(-c2cc(-c3ccccn3)nc(N)n2)n1    97
CC(NC(=O)CCl)c1ccccc1 (centres undefined)    94.9

# evaluate next
growth reported for this molecule CC(=O)Nc1ccc2oc(=O)ccc2c1 : 107

###

System: M14 melanoma
Assay: NCI-60 one-dose screen, 48 h
Conditions: 10 µM unless noted
The panel holds about 83,000 compounds, 20% with a hit somewhere; the sample as a whole holds those more often. The source made the active and inactive calls. The calls were made as follows: active = growth percent below 10; inactive = the rest.
The reply should name one outcome from y = active, n = inactive

Worked examples follow.
CCNC1=CC(=O)c2ncccc2C1=O    y
O=c1[nH]c(=S)[nH]n1C(=S)n1[nH]c(=S)[nH]c1=O    n
CCOC(=O)CN1CCC(C(=O)OCC)CC1    n
O=C(O)/C=C/C=C/c1ccccc1    n
COc1cc(Cl)ccc1C    n

input: I'd appreciate the recorded outcome for O=C1c2ccccc2CN1c1ccccc1 from this test.
output: n

input: In this assay, the call recorded for O=C1C=CC(n2cc(F)c(=O)[nH]c2=O)O1 (stereo unspecified) was what?
output: n

input: Short answer needed: outcome of this test for O=[N+]([O-])c1ccc(N2CCN=N2)cc1 ?
output: n

input: What is the recorded call for this molecule in the test? CCOC(C)=N
output: n

input: Which result was noted for this molecule in the test: CN(C)C(=S)N(C)C
output: n

###

Let's look at some compounds and their measured growth.
Test system: 786-0 renal
Assay: NCI-60 one-dose screen, 48 h (100 = growth as untreated, 0 = no growth, -100 = all killed)
Settings: 10 µM unless noted
The panel holds about 83,000 compounds, 20% with a hit somewhere; the sample as a whole holds those more often. Activity calls are given as the source filed them. Rule for the calls: active = growth percent below 10; inactive = the rest.

A selection of reference data follows.
CC1(C)CC(=O)NC1=O    97.6% (inactive)
Cc1cnc(N)s1    106% (inactive)
CC(=O)Nc1ccc2oc(=O)ccc2c1    81.6% (inactive)
CC(=O)Oc1cc(C)c(OC(C)=O)c(C)c1C    108% (inactive)

# CCc1ccccc1-n1[nH]c(C)c(C=N)c1=O with 786-0 renal: growth is 112% (inactive)

786-0 renal growth of NCCCCCC(=O)O is 107% (inactive) [middle of 4 runs]

For the compound CC(NC(=O)CCl)c1ccccc1 (configuration not stated) , the measured growth on 786-0 renal was 104% (inactive)

Hey, 786-0 renal data for O=C1Cc2ccccc2C(=O)N1 : growth came out at 82.1% (inactive)

Short answer on 786-0 renal for O=C1c2ccccc2CN1c1ccccc1 , growth: 94.7% (inactive)

growth on 786-0 renal for COc1ccc(/C=N/NC(N)=S)cc1 is 98.3% (inactive)

Query CCc1ccc(OC(=O)CCl)cc1 on 786-0 renal; growth returned: 104% (inactive)

// growth (786-0 renal) for COCCCNC1=C(C#N)C(=O)NC(c2cccs2)S1 (configuration not stated) = 106% (inactive)

Reading of growth for Nc1ccc(Cl)c(S(=O)(=O)O)c1 with 786-0 renal: 104% (inactive)

Observed growth on 786-0 renal, entry Cc1ccc([N+](=O)[O-])cc1Br , equals 96.6% (inactive)
